- measured-target: gEgI WT: HSV2 gEgI heterodimer comprising gE and gI wildtype ectodomains (HSV2, UniProt P89475 21-416; P06764 21-256)
- assay-summary: SPR binning; gEgI captured by mAb 42
quantity-kind: RU (RU)
Give the quantity in RU, number only.

Worked examples, 3 binders total:
# binder, RU / RU
records = [
    ("mAb clone 24 (antibody, V domains shown) VH: EVQLQQSGPELVKPGASVKMSCKASGYTFTDYYMKWVKQSHGKSLEWIGDINPNNGDTFYNQKFKGKATLTVDKSSSTAYMQLNSLTSEDSAVYYCARRGFYYYGSRGGIMDYWGQGTSVTVSS VL: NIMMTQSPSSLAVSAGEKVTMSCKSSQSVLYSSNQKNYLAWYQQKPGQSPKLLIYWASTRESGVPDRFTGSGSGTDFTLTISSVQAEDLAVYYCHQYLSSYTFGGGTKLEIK", 30.7),
    ("mAb clone 39 (antibody, V domains shown) VH: EVKLVESGGGLVQPGGSLKLSCAASGFTFSSYTMSWVRQTPEKRLEWVAYISNGGGSTYYPDTVKGRFTISRDNAKNTLYLQMSSLKSEDTAMYYCARGVSYYGDLYYFDYWGQGTTLTVSS VL: DVVVTQTPLSLPVSFGDQVSISCRSSQSLANSYGNTYLSWYLHKPGQSPQLLIYGISNRFSGVPDRFSGSGSGTDFTLKISTIKPEDLGMYYCLQGTHQPWTFGGGTKLEIK", 0.1),
    ("mAb clone 34 (antibody, V domains shown) VH: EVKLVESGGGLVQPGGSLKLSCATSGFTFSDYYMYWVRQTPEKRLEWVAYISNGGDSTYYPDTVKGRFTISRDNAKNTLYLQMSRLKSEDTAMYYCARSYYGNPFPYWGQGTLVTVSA VL: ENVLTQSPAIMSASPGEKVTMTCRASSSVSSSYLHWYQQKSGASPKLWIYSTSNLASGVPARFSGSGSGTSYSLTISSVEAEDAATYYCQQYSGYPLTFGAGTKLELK", -2.4),
]

Record request: RU value, item mAb clone 40 (antibody, V domains shown) VH: QIQLVQSGPELKKPGETVKISCKASGYTFTNYGMNWVKQAPGKGLKWMGWINTYTGEPTYADDFKGRFAFSLETSASTAYLQINNLKNEDTATYFCARSLYGYDEGYFDVWGAGTTVTVSS VL: DIQMTQSPASLSASVGETVTITCRASGNIHNYLAWYQQKQGKSPQLLVYNAKTLADGVPSRFSGSGSGTQYSLKINSLQPEDFGSYYCQHFWSTPYTFGGGTKLEIK
7.4

Record request: RU value, item mAb clone 17 (antibody, V domains shown) VH: QVQLKESGPGLVAPSQSLSITCTVSGFSLTSYGVHWVRQPPGKGLEWLGVIWAGGSSNYNSALMSRLSISKDNSKSQVFLKMNSLQTDDTAMYYCARDGYGYVYYAMDYWGQGTSVTVSS VL: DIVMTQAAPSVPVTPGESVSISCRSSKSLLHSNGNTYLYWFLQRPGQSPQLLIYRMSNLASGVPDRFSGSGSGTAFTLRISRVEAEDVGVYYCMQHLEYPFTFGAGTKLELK
-0.8
